Assay: log P by HPLC on reversed-phase column (EEC Directive 79/831 Annex V.A8)
Type: physicochemical
Conditions: reversed-phase C18 HPLC column; pH 2.7, 0.1% aqueous formic acid/acetonitrile; 55° C.; read-out: log P (acidic)
endpoint-name: chromatographic logP

* O=C(O)c1nc2ncc(Cl)cc2cc1Cl | 0.7

a: CCSc1cc2ccccc2nc1C(=O)CBr
b: O=C(O)c1ccc2cccnc2n1
So which one has the bigger chromatographic logP here, a or b ? State the label of the item chosen.
a

----------
Assay: log P by HPLC on reversed-phase column (EEC Directive 79/831 Annex V.A8)
Assay type: physicochemical
Details: reversed-phase C18 HPLC column; pH 7.8, aqueous ammonium hydrogencarbonate/acetonitrile; 55° C.; read-out: log P (neutral)
endpoint-name: chromatographic logP

Worked cases, chromatographic logP given:
• CCS(=O)(=O)c1cc2ccccc2nc1-c1nc2cc(S(=O)(=O)C(F)(F)F)ccc2n1C = 3.42
• CCSc1cc2ccccc2nc1C(=O)Nc1cc(C(F)(F)F)cnc1Cl = 5.71
• CCSc1cc2ccccc2nc1-c1cn2cnc(C(F)(F)F)cc2n1 = 3.24
• Cn1c(-c2nc3ccccc3nc2Cl)nc2cc(C(F)(F)F)ncc21 = 2.84
• CCS(=O)(=O)c1cnc2nc(-c3nc4cc(C(F)(F)F)ncc4n3C)c(S(=O)(=O)CC)cc2c1 = 2.21
• CCS(=O)(=O)c1cc2ccccc2nc1-c1nc2cc(S(=O)(=O)C(F)(F)F)ccc2o1 = 3.62
• CCSc1cnc2nc(-c3nc4cc(C(F)(F)F)ncc4n3C)c(SCC)cc2c1 = 3.23
• CCS(=O)(=O)c1cc2ccccc2nc1-c1nc2cc([S+]([O-])C(F)(F)F)ccc2o1 (stereo not drawn) = 3.05
• CCSc1cc2ccccc2nc1-c1nc2cc(SC(F)(F)F)ccc2o1 = 5.43
• CCSc1cc2ccccc2nc1C(=O)N(C)OC = 2.17

a: CCS(=O)(=O)c1nc2ccccc2nc1-c1nc2cc(C(F)(F)F)ncc2n1C
b: CCSc1cc2ccccc2nc1-c1nc2cc(SC(F)(F)F)ccc2n1C
c: COC(=O)c1ccc2ncccc2n1 [XXII-2, Methyl 1,5-naphthyridine-2-carboxylate]
Please rank these compounds by chromatographic logP in descending order. Respond with an ordered listing of the labels, as requested.
b, a, c

Data origin, for the record: patent US10550116B2
